I'd be grateful if you could share measured koff for these entries.
# System: T1, human IL-12 (human, UniProt P29459 23-219; P29460 23-328)
# T1 construct: recombinant human IL-12 heterodimer (p35/p40, disulfide-linked); also called hIL-12; rhIL-12
# T1 sequence (looked up) 1: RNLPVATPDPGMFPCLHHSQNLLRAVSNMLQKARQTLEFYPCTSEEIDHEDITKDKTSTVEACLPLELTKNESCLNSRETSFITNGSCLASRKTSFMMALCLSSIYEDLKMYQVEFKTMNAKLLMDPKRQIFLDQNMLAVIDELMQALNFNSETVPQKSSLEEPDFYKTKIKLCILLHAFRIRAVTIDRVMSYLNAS
# T1 sequence (looked up) 2: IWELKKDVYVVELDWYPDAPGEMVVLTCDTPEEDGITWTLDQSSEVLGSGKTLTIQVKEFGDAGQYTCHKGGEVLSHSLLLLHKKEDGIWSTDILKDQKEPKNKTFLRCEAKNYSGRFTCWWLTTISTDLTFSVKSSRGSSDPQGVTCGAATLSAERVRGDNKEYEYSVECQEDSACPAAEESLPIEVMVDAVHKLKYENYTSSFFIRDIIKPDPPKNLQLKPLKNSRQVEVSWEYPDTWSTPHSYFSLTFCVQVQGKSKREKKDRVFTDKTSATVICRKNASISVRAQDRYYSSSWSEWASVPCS
# Measurement Protocol: SPR (BIAcore), IL-12 chip
# Excerpt: The system utilizes the optical properties of SPR to detect alterations in protein concentrations within a dextran biosensor matrix. Proteins are covalently bound to the dextran matrix at known concentrations. […] To determine the off rate (koff), on rate (kₒₙ), association rate (Ka) and dissociation rate (Kd) constants, BIAcore kinetic evaluation software (version 2.1) was used.
Dear colleague, please return just the value in s⁻¹, with no unit written.

Q: # koff lookup, item 70-7 (scFv, V domains shown, scFv) VH: QVQLVQSGGGVVQPGRSLRLSCAASGFTFSSYGMHWVRQAPGKGLEWVAFIRYDGSNKYYADSVKGRFTISRDNSKNTLYLQMKSLRAEDTAVYYCTTRRRSNYWGQGTMVTVSS VL: SYVLTQPPSVSGTPGQRVTISCSGGRSNIGSNTVKWYQQLPGTAPKLLIYGNDQRPSGVPDRFSGSKSGTSASLAITGVQAEDEADYYCQSYDSSLRGSRVFGTGTKVTVL
Ans: 0.129

Q: Returns the measured koff for the input binder. Input: 149-7 (scFv, V domains shown, scFv) VH: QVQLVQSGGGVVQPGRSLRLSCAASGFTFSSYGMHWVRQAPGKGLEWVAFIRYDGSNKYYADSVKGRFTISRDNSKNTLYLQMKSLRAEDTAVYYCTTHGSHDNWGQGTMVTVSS VL: SYVLTQPPSVSGTPGQRVTISCSGGRSNIGSNTVKWYQQLPGTAPKLLIYGNDQRPSGVPDRFSGSKSGTSASLAITGVQAEDEADYYCQSYDRDFTGSRVFGTGTKVTVL
Ans: 0.00113

Q: Given the entry 170-23 (scFv, V domains shown, scFv) V domain 1: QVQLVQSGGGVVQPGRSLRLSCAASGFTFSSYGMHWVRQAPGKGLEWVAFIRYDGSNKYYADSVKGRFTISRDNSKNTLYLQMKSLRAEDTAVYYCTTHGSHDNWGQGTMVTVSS V domain 2: SYVLTQPPSVSGTPGQRVTISCSGGRSNIGSNTVKWYQQLPGTAPKLLIYGNDQRPSGVPDRFSGSKSGTSASLAITGVQAEDEADYYCQSYDRGFTGARVWGTGTKVTVL , report its measured koff.
Ans: 0.001
